# assay-details: self-splicing fitness, log relative to wild type (ln ratio); higher = more splicing; Tetrahymena group I intron in knt gene, E. coli kanamycin selection, DiMSum; sequences stand for … in CUCUCU…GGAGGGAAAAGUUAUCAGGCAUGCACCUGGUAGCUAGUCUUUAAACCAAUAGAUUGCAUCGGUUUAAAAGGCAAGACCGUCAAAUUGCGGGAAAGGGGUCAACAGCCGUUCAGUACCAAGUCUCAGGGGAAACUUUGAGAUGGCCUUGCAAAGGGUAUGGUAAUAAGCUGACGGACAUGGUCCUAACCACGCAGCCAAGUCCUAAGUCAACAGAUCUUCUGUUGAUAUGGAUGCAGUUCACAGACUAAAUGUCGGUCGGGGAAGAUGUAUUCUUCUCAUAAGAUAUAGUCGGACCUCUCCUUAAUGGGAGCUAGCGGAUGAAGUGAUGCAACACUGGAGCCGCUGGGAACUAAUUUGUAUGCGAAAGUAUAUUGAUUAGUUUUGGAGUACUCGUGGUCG;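 also: selection with 25 µg/mL kanamycin versus none on LB agar overnight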
# condition-details: 37 °C
self-splicing fitness (ln) for assorted sequences

[
  {
    "item-sequence": "AGGGAGCAAUAUUACGGCUA",
    "self-splicing fitness (ln)": -2.17
  },
  {
    "item-sequence": "CAACAGCAAUAUUACGAGGG",
    "self-splicing fitness (ln)": -2.2
  },
  {
    "item-sequence": "GCGGAGCAAUAUUACGUAUU",
    "self-splicing fitness (ln)": -2.48
  },
  {
    "item-sequence": "ACUUAGCAAUAUUACGUAAU",
    "self-splicing fitness (ln)": -1.54
  },
  {
    "item-sequence": "GAGCAGCAAUAUUACGAUUG",
    "self-splicing fitness (ln)": -2.41
  },
  {
    "item-sequence": "CCAAAGCAAUAUUACGUGUC",
    "self-splicing fitness (ln)": -3.6
  },
  {
    "item-sequence": "GGGAAGCAAUAUUACGGAUA",
    "self-splicing fitness (ln)": -1.38
  },
  {
    "item-sequence": "AAAUAGCAAUAUUACGGGUA",
    "self-splicing fitness (ln)": -1.41
  },
  {
    "item-sequence": "UUUAAGCAAUAUUACGCCUG",
    "self-splicing fitness (ln)": -0.13
  },
  {
    "item-sequence": "CAGCAGCAAUAUUACGAAUG",
    "self-splicing fitness (ln)": 0.012
  },
  {
    "item-sequence": "CCGUAGCAAUAUUACGUCGA",
    "self-splicing fitness (ln)": -1.57
  },
  {
    "item-sequence": "UCCAAGCAAUAUUACGGUGU",
    "self-splicing fitness (ln)": 0.18
  },
  {
    "item-sequence": "AGGGAGCAAUAUUACGCACU",
    "self-splicing fitness (ln)": -0.0242
  },
  {
    "item-sequence": "CACUAGCAAUAUUACGCAAU",
    "self-splicing fitness (ln)": -3.09
  },
  {
    "item-sequence": "CACGAGCAAUAUUACGUGCA",
    "self-splicing fitness (ln)": -3.24
  },
  {
    "item-sequence": "ACGGAGCAAUAUUACGCGUU",
    "self-splicing fitness (ln)": -1.9
  },
  {
    "item-sequence": "AUCUAGCAAUAUUACGAAAA",
    "self-splicing fitness (ln)": -2.38
  },
  {
    "item-sequence": "GAUGAGCAAUAUUACGGCGC",
    "self-splicing fitness (ln)": 0.649
  },
  {
    "item-sequence": "AGUCAGCAAUAUUACGUUAU",
    "self-splicing fitness (ln)": -0.0312
  },
  {
    "item-sequence": "ACUGAGCAAUAUUACGACGA",
    "self-splicing fitness (ln)": -0.569
  },
  {
    "item-sequence": "UGCAAGCAAUAUUACGCGGC",
    "self-splicing fitness (ln)": -2.3
  },
  {
    "item-sequence": "GUAAAGCAAUAUUACGCAGA",
    "self-splicing fitness (ln)": -0.446
  },
  {
    "item-sequence": "GCGCAGCAAUAUUACGGCCC",
    "self-splicing fitness (ln)": 0.349
  }
]

Just for reference, the supplement of paper PMC7877785 is where these values come from.
